Test: Pharmacokinetics in plasma after ip administration
Assay type: in vivo, rat
Conditions: male, Wistar, rat, plasma, ip
For each entry below, report its CL/F value.
Answers are plain numbers, in mL/min/kg.

List reported CL/F for each of these compounds:
1. N=C(N)N/N=C/c1c(Cl)cccc1Cl [Guanabenz]
2. Cl.N=C(N)NN=Cc1c(Cl)cc(O)cc1Cl [4-OH-Guanabenz]

**Result**
1. 13.5
2. 17.7

* * *

Assay: Distribution in brain after ip administration
Type: in vivo, rat
Conditions: male, Wistar, rat, brain, ip
Method: For the pharmacokinetic study, a group of 56 adult male rats (Wistar, 220–250 g, […]) were used in the experiment. […] The pharmacokinetic parameters were calculated using a non-compartmental approach from the average concentration values, using Phoenix WinNonlin software (Certara, Princeton, NJ 08540 USA). The first-order elimination rate constant (λz) was calculated by linear regression of time versus log concentration. […]
QUANTITY_NAME: Tmax (min)
Give bare numbers, in min.

Cl.N=C(N)NN=Cc1c(Cl)cc(O)cc1Cl | 15

**Query** Which Tmax is listed for N=C(N)N/N=C/c1c(Cl)cccc1Cl ?
**Result** 60

* * *

Test: Pharmacokinetics in plasma after ip administration
Type: in vivo, rat
Conditions: male, Wistar, rat, intraperitoneal; plasma, 240 min after administration, mean
QUANTITY_NAME: concentration at 240 min (ng/mL)
Answers are plain numbers, in ng/mL.

N=C(N)N/N=C/c1c(Cl)cccc1Cl | 8.53

Proceed to the following item.
**Query** Give its concentration at 240 min value. Item: Cl.N=C(N)NN=Cc1c(Cl)cc(O)cc1Cl
**Result** 6.52

* * *

Exercise: for every item that follows, state its recorded concentration at 120 min.
Test: Pharmacokinetics in plasma after ip administration
Assay type: in vivo, rat
Settings: male, Wistar, rat, intraperitoneal; plasma, 120 min after administration, mean
Answers are plain numbers, in ng/mL.

Cl.N=C(N)NN=Cc1c(Cl)cc(O)cc1Cl | 8.65

Consider now this further compound.
**Query** Entry under review: N=C(N)N/N=C/c1c(Cl)cccc1Cl . Reported concentration at 120 min?
**Result** 26.1

* * *

Experiment: Distribution in brain after ip administration
Format: in vivo, rat
Conditions: male, Wistar, rat, intraperitoneal; brain, 15 min after administration, mean
QUANTITY_NAME: concentration at 15 min (ng/g)
Numbers only, in ng/g.

Cl.N=C(N)NN=Cc1c(Cl)cc(O)cc1Cl [4-OH-Guanabenz] | 64.5

Okay, next one:
**Query** Which concentration at 15 min value is on record for N=C(N)N/N=C/c1c(Cl)cccc1Cl [Guanabenz] ?
**Result** 110

* * *

Experiment: Pharmacokinetics in plasma after ip administration
Type: in vivo, rat
Details: male, Wistar, rat, intraperitoneal; plasma, 60 min after administration, mean
QUANTITY_NAME: concentration at 60 min
Hi, when you answer, please include the unit after the number. Thanks!

Cl.N=C(N)NN=Cc1c(Cl)cc(O)cc1Cl | 41.9 ng/mL

// moving on: another record for concentration at 60 min
**Query** If you can, please state the reported concentration at 60 min value of N=C(N)N/N=C/c1c(Cl)cccc1Cl .
**Result** 14.2 ng/mL

* * *

Molecular target: UniProt Q96RJ0
Sequence (Q96RJ0 whole entry): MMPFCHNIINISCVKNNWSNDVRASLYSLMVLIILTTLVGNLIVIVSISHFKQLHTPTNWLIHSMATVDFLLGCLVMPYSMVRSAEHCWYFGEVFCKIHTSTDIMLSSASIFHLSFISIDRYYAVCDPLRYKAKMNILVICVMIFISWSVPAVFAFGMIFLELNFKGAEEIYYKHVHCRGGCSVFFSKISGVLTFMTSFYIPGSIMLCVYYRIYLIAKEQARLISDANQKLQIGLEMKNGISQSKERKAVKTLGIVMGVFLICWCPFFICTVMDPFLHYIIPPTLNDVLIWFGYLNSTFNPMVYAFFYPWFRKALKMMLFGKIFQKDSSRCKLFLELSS
Assay: Intrinsic activity, Hit Hunter cAMP assay
Type: cell-based
QUANTITY_NAME: pEC50
Answers are plain numbers, as −log10 of the molar value.

**Query** What value of pEC50 has been recorded for this entry: Clc1cccc(N2CCNCC2)c1 [mCPP, 1-(3-Chlorophenyl)piperazine]
**Result** 3.63

* * *

Exercise: state measured concentration at 30 min for each of the compounds provided.
Assay: Pharmacokinetics in plasma after ip administration
Assay type: in vivo, rat
Conditions: male, Wistar, rat, intraperitoneal; plasma, 30 min after administration, mean
Answers are plain numbers, in ng/mL.

Cl.N=C(N)NN=Cc1c(Cl)cc(O)cc1Cl | 20.2

Shifting focus to the compound that follows.
**Query** Query (compound): N=C(N)N/N=C/c1c(Cl)cccc1Cl ; field requested: concentration at 30 min
**Result** 95.1

* * *

Assay: Pharmacokinetics in plasma after ip administration
Assay type: in vivo, rat
Conditions: male, Wistar, rat, intraperitoneal; plasma, 5 min after administration, mean
Description: For the pharmacokinetic study, a group of 56 adult male rats (Wistar, 220–250 g, […]) were used in the experiment. […] The pharmacokinetic parameters were calculated using a non-compartmental approach from the average concentration values, using Phoenix WinNonlin software (Certara, Princeton, NJ 08540 USA). The first-order elimination rate constant (λz) was calculated by linear regression of time versus log concentration. […] Mean residence time (MRT, Eq. 3) was calculated as3 MRT=AUMC0→t/AUC0→t. […]
Please respond with reported concentration at 5 min for every item in the list.
Give bare numbers, in ng/mL.

Cl.N=C(N)NN=Cc1c(Cl)cc(O)cc1Cl [4-OH-Guanabenz] | 54.3

Now let's try a different one.
**Query** Query (molecule): N=C(N)N/N=C/c1c(Cl)cccc1Cl [Guanabenz] ; field requested: concentration at 5 min
**Result** 10.2

* * *

Target: α2B-adrenoceptor (Homo sapiens, UniProt P18089)
Sequence (P18089 1-450): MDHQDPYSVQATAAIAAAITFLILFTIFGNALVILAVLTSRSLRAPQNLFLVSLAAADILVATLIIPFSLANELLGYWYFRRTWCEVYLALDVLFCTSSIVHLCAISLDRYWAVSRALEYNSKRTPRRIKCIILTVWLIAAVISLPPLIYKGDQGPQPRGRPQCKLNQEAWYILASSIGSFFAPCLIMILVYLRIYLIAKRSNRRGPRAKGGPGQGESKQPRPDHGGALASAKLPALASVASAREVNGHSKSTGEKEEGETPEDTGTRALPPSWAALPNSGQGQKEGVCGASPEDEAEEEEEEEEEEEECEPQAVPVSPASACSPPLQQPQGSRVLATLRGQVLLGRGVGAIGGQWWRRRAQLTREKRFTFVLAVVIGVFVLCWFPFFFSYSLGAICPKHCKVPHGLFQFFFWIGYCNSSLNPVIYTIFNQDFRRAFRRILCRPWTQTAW
Assay: Intrinsic activity, AequoScreen aequorin calcium mobilization
QUANTITY_NAME: pEC50
Answers are plain numbers, as −log10 of the molar value.

**Query** Request: pEC50, test system α2B-adrenoceptor (Homo sapiens, UniProt P18089), entry Cl.N=C(N)NN=Cc1c(Cl)cc(O)cc1Cl
**Result** 6.48

* * *

Test: Distribution in brain after ip administration
Assay type: in vivo, rat
Settings: male, Wistar, rat, intraperitoneal; brain, 5 min after administration, mean
Give concentration at 5 min for every item shown.
Give bare numbers, in ng/g.

Cl.N=C(N)NN=Cc1c(Cl)cc(O)cc1Cl [4-OH-Guanabenz] | 13.3

We next turn to a different compound, shown below.
**Query** Tell me the measured concentration at 5 min of N=C(N)N/N=C/c1c(Cl)cccc1Cl [Guanabenz] , please.
**Result** 45.6

* * *

Molecular target: UniProt Q96RJ0
Experiment: Intrinsic activity, Hit Hunter cAMP assay
Format: cell-based
Details: agonist; tested up to 10^–4 M, response at 10^–2 and 10^–1 M assumed 90–100% of tyramine; read-out: EC50 calculated after computer simulation
QUANTITY_NAME: EC50
Include the unit right after the number.

**Query** Bench note: what EC50 did Cl.N=C(N)NN=Cc1c(Cl)cc(O)cc1Cl [4-OH-Guanabenz] show?
**Result** 331 µM

* * *

Assay: Distribution in brain after ip administration
Assay type: in vivo, rat
Settings: male, Wistar, rat, brain, ip, 0.3 mg/kg
QUANTITY_NAME: Tmax

**Query** // lookup Tmax for N=C(N)N/N=C/c1c(Cl)cccc1Cl
**Result** ≤ 1 h

* * *

Biological target: α2A-adrenoceptor (Homo sapiens)
Sequence (P08913 1-465): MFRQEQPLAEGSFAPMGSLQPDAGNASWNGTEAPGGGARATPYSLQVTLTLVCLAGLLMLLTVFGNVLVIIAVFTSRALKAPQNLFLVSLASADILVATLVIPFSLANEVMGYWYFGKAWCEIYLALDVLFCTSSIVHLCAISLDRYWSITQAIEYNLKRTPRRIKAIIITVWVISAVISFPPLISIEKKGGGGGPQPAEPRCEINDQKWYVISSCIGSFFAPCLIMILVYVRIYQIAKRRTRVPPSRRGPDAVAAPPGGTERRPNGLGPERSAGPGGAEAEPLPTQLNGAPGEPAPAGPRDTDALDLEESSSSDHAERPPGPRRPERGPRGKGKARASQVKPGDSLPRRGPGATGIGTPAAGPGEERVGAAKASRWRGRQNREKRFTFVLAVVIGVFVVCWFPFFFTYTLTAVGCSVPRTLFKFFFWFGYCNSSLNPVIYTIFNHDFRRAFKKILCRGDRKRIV
Assay: Intrinsic activity, Tango beta-lactamase reporter assay
Details: agonist assay
QUANTITY_NAME: EC50 (nM)
Numbers only, in nM.

**Query** Which EC50 value is on record for Cl.N=C(N)NN=Cc1c(Cl)cc(O)cc1Cl ?
**Result** 316
